B1: F1*; the commonest letter at each place (parent)
chain: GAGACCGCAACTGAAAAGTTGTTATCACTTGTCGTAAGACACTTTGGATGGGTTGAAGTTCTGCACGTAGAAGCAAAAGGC

- Variants of: B1
- Run Description: fraction ligated after 30 min (ligated reads / total reads); higher = more ligase activity
- Condition Context: with F1*sub RNA substrate (template-directed ligation), 42 °C
Property: fraction ligated

Field: example entries. Status: answers known.
>  <Mutant Id>
A37G G38A

>  <Property>
fraction ligated

>  <Recorded Value>
0.882

$$$$
>  <Mutant Id>
A27T A56C

>  <Property>
fraction ligated

>  <Recorded Value>
0.787

$$$$
>  <Mutant Id>
T25C T44C

>  <Property>
fraction ligated

>  <Recorded Value>
0.765

$$$$
>  <Mutant Id>
C28G T32C

>  <Property>
fraction ligated

>  <Recorded Value>
0.723

$$$$
>  <Mutant Id>
C28G C42G

>  <Property>
fraction ligated

>  <Recorded Value>
0.851

$$$$
>  <Mutant Id>
A27G A37C

>  <Property>
fraction ligated

>  <Recorded Value>
0.817

$$$$
>  <Mutant Id>
T32G A57G

>  <Property>
fraction ligated

>  <Recorded Value>
0.844

$$$$
>  <Mutant Id>
C42A T49G

>  <Property>
fraction ligated

>  <Recorded Value>
0.789

$$$$

Next up:
response.value for A24C A27T (field: fraction ligated) = 0.668
